Measured IC50 by item
- test system: Human ATX protein (Homo sapiens, UniProt Q13822)
- Construct: made in house
- protocol: ATX biochemical FRET assay with FS-3 substrate
- condition info: IC50, FRET substrate FS-3 2 μM, ATX 1.0 μg/mL, 30 minutes pre-incubation, 2 hours at room temperature

Use the examples below as a reference point.
Query string: Can you share its IC50? I mean this molecule: C[C@H]1CC[C@@H](Oc2ccc3ccc(CN4C5CCCC4CC(C(=O)O)C5)cc3c2C(F)(F)F)CC1 (some centres unmarked)
Result string: ≤ 100 nM

Query string: Now the same for CC[C@H]1CC[C@@H](Oc2ccc3ccc(C(C)N4C5CCC4CC(C(=O)O)C5)cc3c2C#N)CC1 (some centres unmarked)
Result string: ≤ 100 nM

Query string: Now the same for CC[C@H]1CC[C@@H](Oc2ccc3ccc([C@H](C)N4C5CCCC4CC(C(=O)O)C5)cc3c2C(F)(F)F)CC1 (some centres unmarked) [Example 133a]
Result string: ≤ 100 nM

Query string: Now the same for C[C@H]1CC[C@@H](Oc2ccc3ccc(CN4C5CCCC4CC(C(=O)O)C5)cc3c2C#N)CC1 (some centres unmarked)
Result string: ≤ 100 nM

Query string: Now the same for CC[C@H]1CC[C@@H](Oc2ccc3ccc(CN4C5CCCC4CC(C(=O)O)C5)cc3c2C#N)CC1 (some centres unmarked)
Result string: ≤ 100 nM

Query string: Now the same for C[C@H](c1ccc2ccc(O[C@H]3CC[C@@H](C(F)(F)F)CC3)c(C(F)(F)F)c2c1)N1C2CCC1CC(C(=O)O)C2 (some centres unmarked) [Example 12b]
Result string: ≤ 100 nM

Query string: Now the same for O=C(O)C1CC2CCCC(C1)N2Cc1ccc2ccc(O[C@H]3CC[C@@H](C(F)(F)F)CC3)c(Cl)c2c1 (some centres unmarked)
Result string: ≤ 100 nM

Query string: Now the same for CC(c1cc2c(C(F)(F)F)c(O[C@H]3CC[C@@H](C)CC3)ccc2cc1F)N1C2CCC1CC(C(=O)O)C2 (some centres unmarked)
Result string: ≤ 100 nM

New cases:
Query string: Can you share its IC50? I mean this molecule: CC(C)[C@H]1CC[C@@H](Oc2ccc3ccc(CN4C5CCCC4CC(C(=O)O)C5)cc3c2C(F)(F)F)CC1 (some centres unmarked)
Result string: ≤ 100 nM

Query string: Now the same for C[C@H](c1ccc2ccc(O[C@H]3CC[C@@H](C)CC3)c(C(F)(F)F)c2c1)N1C2CCCC1CC(C(=O)O)C2 (single isomer, unassigned)
Result string: ≤ 100 nM

Query string: Now the same for N#Cc1c(O[C@H]2CC[C@@H](C(F)(F)F)CC2)ccc2ccc(CN3C4CCC3CC(C(=O)O)C4)cc12 (some centres unmarked)
Result string: ≤ 250 nM

Query string: Now the same for O=C(O)C1CC2CCCC(C1)N2C(=O)c1ccc2ccc(O[C@H]3CC[C@@H](C(F)(F)F)CC3)c(C(F)(F)F)c2c1 (some centres unmarked)
Result string: ≤ 100 nM

Query string: Now the same for CC[C@H]1CC[C@@H](Oc2ccc3ccc(C(C)N4C5CCC4CC(C(=O)O)C5)cc3c2Cl)CC1 (some centres unmarked)
Result string: ≤ 250 nM

Query string: Now the same for C[C@@H](c1ccc2ccc(O[C@H]3CC[C@@H](C(F)(F)F)CC3)c(C(F)(F)F)c2c1)N1C2CCC1CC(C(=O)O)C2 (some centres unmarked) [Example 12a]
Result string: ≤ 500 nM
